target: CD73 (Calu-6 cells) (Homo sapiens, UniProt P21589); construct: endogenous in cells; test: Enzymatic activity detection at the cellular level (Calu-6 cells, AMP substrate, Cell-titer Glo luminescence); details: enzymatic IC50 at the Calu-6 cell level, 30 min pre-incubation, 120 min at 37° C.
Sequence (P21589 27-549): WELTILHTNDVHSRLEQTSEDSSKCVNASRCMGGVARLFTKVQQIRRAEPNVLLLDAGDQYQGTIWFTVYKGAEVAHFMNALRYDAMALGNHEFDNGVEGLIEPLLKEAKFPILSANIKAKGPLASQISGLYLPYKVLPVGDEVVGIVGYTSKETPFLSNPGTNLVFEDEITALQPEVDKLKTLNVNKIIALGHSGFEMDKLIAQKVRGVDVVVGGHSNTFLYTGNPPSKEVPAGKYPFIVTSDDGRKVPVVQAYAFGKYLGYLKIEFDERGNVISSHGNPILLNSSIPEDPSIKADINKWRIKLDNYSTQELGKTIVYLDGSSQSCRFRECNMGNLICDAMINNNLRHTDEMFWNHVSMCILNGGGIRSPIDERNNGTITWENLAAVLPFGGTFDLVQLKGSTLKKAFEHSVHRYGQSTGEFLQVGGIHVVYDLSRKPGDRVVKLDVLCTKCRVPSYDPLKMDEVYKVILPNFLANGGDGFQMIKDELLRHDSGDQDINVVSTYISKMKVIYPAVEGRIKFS
pIC50: −log10 of the molar value.
# label = TRUE if pIC50 >= 8 else FALSE

Observe how each entry below is paired with its result.
| Molecule | Label class |
| --- | --- |
| O=c1[nH]cc(-c2cc(C3CC3c3cccc4ccccc34)c(Cl)nn2)c(=O)[nH]1 (centres unmarked) | FALSE |
| COc1nnc(-c2c[nH]c(=O)[nH]c2=O)cc1[C@H]1C[C@@H]1C#Cc1cccc(C#N)c1 | TRUE |
| N#Cc1ccc(C#C[C@H]2C[C@@H]2c2cc(-c3c[nH]c(=O)[nH]c3=O)nnc2C#N)cc1 | TRUE |
| Cc1nnc(-c2c[nH]c(=O)[nH]c2=O)cc1[C@H]1C[C@@H]1/C=C/C1CC1 | FALSE |
| O=c1[nH]cc(-c2cc([C@H]3C[C@@H]3C#Cc3cccnc3)c(Cl)nn2)c(=O)[nH]1 | TRUE |

Input line: Determine whether measured pIC50 meets or exceeds 8 for O=c1[nH]cc(-c2cc(C3CC3c3ccc(F)cc3)c(Cl)nn2)c(=O)[nH]1 (centres unmarked)
Output line: TRUE

Input line: In plain terms: is recorded pIC50 at least 8 for N#Cc1cccc(C#C[C@H]2C[C@@H]2c2cc(-c3c[nH]c(=O)[nH]c3=O)nnc2Cl)c1 ?
Output line: TRUE
